// IC50 lookup, one value per entry
target: S-nitrosoglutathione reductase (GSNOR) (Homo sapiens); construct: made in house; host or cells: E. coli; test: GSNOR assay (inhibition of GSNOR activity, NADH absorbance at 340 nm); type: biochemical; conditions: GSNOR inhibitor activity, Tables 1-6; read-out: IC50 range
Sequence (P11766 whole entry): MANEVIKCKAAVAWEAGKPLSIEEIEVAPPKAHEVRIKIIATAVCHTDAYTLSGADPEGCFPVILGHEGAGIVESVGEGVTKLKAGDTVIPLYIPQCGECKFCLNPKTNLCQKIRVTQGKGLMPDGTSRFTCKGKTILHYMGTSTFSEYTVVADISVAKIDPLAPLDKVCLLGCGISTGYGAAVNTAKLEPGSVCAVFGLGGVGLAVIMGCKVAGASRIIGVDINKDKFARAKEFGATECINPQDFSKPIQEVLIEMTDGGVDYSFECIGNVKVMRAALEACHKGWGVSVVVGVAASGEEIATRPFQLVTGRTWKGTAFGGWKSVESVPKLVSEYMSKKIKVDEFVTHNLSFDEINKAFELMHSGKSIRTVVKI

Some solved cases for reference:
N#Cc1cc(C(=O)O)ccc1-c1ccc2cc(O)ccc2n1 [Compound I-49]; < 100 nM
O=C(O)[C@H]1CC[C@@H](c2nc3ccc(O)cc3nc2C(F)(F)F)CC1 [II-28]; 1000 to 10000 nM
O=C(O)c1ccc(-c2ccc3cc(O)ccc3[n+]2[O-])c(Cl)c1 [Compound I-50]; 100 to 1000 nM
Oc1ccc2nc(-c3ccc(-c4nnn[nH]4)cc3)ccc2c1 [Compound I-4]; < 100 nM
Cc1cc(C(=O)O)ccc1-c1cc(F)c2c(F)c(O)ccc2c1 [III-41]; < 100 nM
O=C(O)c1ccc(-c2ccc3cc(O)ccc3n2)cc1F [Compound I-10]; < 100 nM
COc1cc(C(=O)O)ccc1-c1cc(F)c2c(F)c(O)ccc2c1 [III-43]; < 100 nM
N#Cc1cc(C(=O)O)ccc1-c1ccc2cc(O)ccc2c1 [III-6]; < 100 nM

Please report the measured IC50 for O=C(O)c1ccc(CS(=O)(=O)c2ccc(O)cc2)c(F)c1 [VI-26]
< 100 nM

Please report the measured IC50 for O=C(O)c1ccc(-c2cc(F)c3c(F)c(O)ccc3c2)cc1 [III-42]
< 100 nM
